- System Tested: canine IL-4RA (construct not given) (canine)
- Protocol Notes: SPR, IL-4RA immobilised, periplasmic Fab
Readout Label: Improvement over parental (fold)
Give the value, in units of fold, as a plain number.

Prompt: For the binder shown here, FJ2246MP06A09 (Fab, V domains shown) VH: EVQLVESGGDLVKPGGSLRLSCVASGFTFRDYAMTWVRQAPGKGLQWVSLINGNGSKTYYADAVKGRFTISRDNAKNTLYLQMNSLRAEDTAVYYCAVDRLTKTIRPQYYGLWVWGQGTLVTVSS VL: DIVMTQTPLSLSVSPGETASISCRSSQSLLYSIGYNYLDWYLQKPGQSPQGLIYLGSKRASGVPDRFSGSGSGTDFTLRISRVEANDTGVYYCMQGLQSPLTFGQGTKLEIKR , give the reported Improvement over parental.
Response: 2.6
